Reference source for all entries: the METLIN SMRT retention time set (Domingo-Almenara et al. 2019)

Attribute: RP-LC retention time
# Run description: gradient 5% acetonitrile 3 min, to 50% in 2 min, to 85% in 15 min, held 3 min, 100 µL/min
# Measurement parameters: column: Zorbax Extend-C18 2.1 x 50 mm; eluents: water / acetonitrile, 0.1% formic acid
Return type: number; implicit unit s.

These recorded examples may help you get a feel for the data.
Requested field: RP-LC retention time. Item: O=c1ccc(-c2ccc3c(c2)OCO3)nn1Cc1nc(-c2ccc(F)c(Br)c2)no1 1100

Requested field: RP-LC retention time. Item: COC(=O)c1ccc2c(=O)n(-c3cc(F)cc(F)c3)c(N3CCN(c4ccccn4)CC3)nc2c1 753

Requested field: RP-LC retention time. Item: CCc1ccc(NC(=O)N2CCN(c3cnn4c(CC)nnc4c3)CC2)cc1 698

Requested field: RP-LC retention time. Item: Cc1sc(-c2nnc(C3CC3)o2)cc1NC(=O)C1CCC1 856

Requested field: RP-LC retention time. Item: Cc1ccc2[nH]cc(CCN3CC(C(=O)N4CCCCCC4)CC3=O)c2c1 (stereo not drawn) 800

Requested field: RP-LC retention time. Item: Cc1nncn1C1CCN(S(=O)(=O)c2ccc(CC(C)C)cc2)CC1 822

Requested field: RP-LC retention time. Item: CCN1C(=O)COc2ccc(-c3csc(NC(=O)c4ccc(Br)cc4)n3)cc21 1080

Requested field: RP-LC retention time. Item: CCCNC(=O)C1CCCN(C(=O)c2[nH]c(C)c(C(=O)OCC)c2C)C1 (stereo not drawn) 712

New cases:
Requested field: RP-LC retention time. Item: Cc1ccc(C)c(N2C(=O)CC(N3CCC(C(N)=O)CC3)C2=O)c1 (stereo not drawn) 601

Requested field: RP-LC retention time. Item: CNC(=O)N1CCc2ccc(C(=O)NC(C)C)cc21 625

Requested field: RP-LC retention time. Item: CCCCn1cc(S(=O)(=O)Nc2ccc(Cl)cc2F)c2cccnc21 1020

Requested field: RP-LC retention time. Item: CC(=O)N1CCC(C(=O)N2CCN(S(=O)(=O)c3ccc4c(c3)sc(=O)n4C(C)C)CC2)CC1 727

Requested field: RP-LC retention time. Item: O=C(NCCC1CCN(C(=O)Nc2cc(F)cc(F)c2)CC1)C1CC1 735

Requested field: RP-LC retention time. Item: Cc1cc(N(C)C)n2nc(CN3CCN(c4cccc(Cl)c4)CC3)nc2n1 635

Requested field: RP-LC retention time. Item: CCCc1noc(-c2ccnc(-n3cnc(C(=O)NC4CCCCC4)c3)c2)n1 973

Requested field: RP-LC retention time. Item: C[C@@]1(O)CCN(Cc2cccc(C#N)c2)C[C@H]1N1CCCC1 541

Requested field: RP-LC retention time. Item: CC(=O)N(Cc1nn(C)c2c1CN(S(=O)(=O)c1ccc(F)cc1F)CC2)c1ccccc1 808

Requested field: RP-LC retention time. Item: COc1ccc(NC(=O)C2CCN(S(=O)(=O)c3ccc4c(c3)CCCN4C(C)=O)CC2)cc1 780

Requested field: RP-LC retention time. Item: COc1ccc(-c2nnc(-c3ccc(Cl)c(S(=O)(=O)N4CCCCCC4)c3)o2)cc1 1210

Requested field: RP-LC retention time. Item: Cc1ccc(C(=O)N2CCC(COc3ccc(C(=O)NC(C)C)cc3)CC2)c(C)c1 931

Requested field: RP-LC retention time. Item: COC(=O)c1c(C)[nH]c(C(=O)N2CCC(CC(=O)NCc3ccc(Cl)cc3)CC2)c1C 774

Requested field: RP-LC retention time. Item: Cc1ccc(C(=O)N2CCC3(C2)C(=O)N(C)c2ccccc23)cc1F (stereo not drawn) 815

Requested field: RP-LC retention time. Item: c1ccc2c(CCNc3ccc(Nc4ccncc4)cc3)c[nH]c2c1 1110
